Origin of the recorded values: PubChem BioAssay (NCI)

# Test system: NCI-H322M lung
# MEASUREMENT NOTES: NCI-60 one-dose screen, 48 h (100 = growth as untreated, 0 = no growth, -100 = all killed)
# CONDITION SET: 10 µM unless noted
Compounds without any hit were thinned out: in the full panel of roughly 83,000, 20% have a hit. Calls of active or inactive are those of the source. Rule for the calls: active = growth percent below 10; inactive = the rest.
MEASURED QUANTITY: growth

Some compounds with known growth results, for comparison:
COMPOUND | MEASURED QUANTITY | OBSERVED RESULT
C#Cc1cccc(NC(=O)c2ccc(NC(=O)CCl)cc2)c1 | growth | 86.6% [8.25 µM] (inactive)
CC(C)(C)OC(=O)Nc1ccc2c(c1)C(NC(=O)Nc1cccc(C#N)c1)CC(C)(C)O2 (stereo unspecified) | growth | 73.6% (inactive)
O=C(COc1ccc(/C=C2\Oc3ccccc3C2=O)cc1)Nc1nc2ccccc2s1 | growth | 118% (inactive)
COC(=O)[C@]12CC[C@@H](C)[C@H](C)[C@@H]1C1=CC[C@@H]3[C@@]4(C)C(C=O)=C[C@@](C)(COC(=O)c5ccco5)[C@@H]4C(=O)C[C@@]3(C)[C@]1(C)CC2 | growth | 69.6% (inactive)
Cc1ccc(CCC(=O)Nc2ncc(Cc3cc(Cl)ccc3Cl)s2)o1 | growth | 33.3% (inactive)

Please give the measured growth for this compound: `N/C(=N\c1nc2ccccc2s1)NC(=O)Nc1cccc(Cl)c1`
53.3% (inactive)
